TGT: human mGlu5a receptor (Homo sapiens (Human), UniProt P41594)
Sequence (P41594 other isoform, or with tags, fused parts or gaps): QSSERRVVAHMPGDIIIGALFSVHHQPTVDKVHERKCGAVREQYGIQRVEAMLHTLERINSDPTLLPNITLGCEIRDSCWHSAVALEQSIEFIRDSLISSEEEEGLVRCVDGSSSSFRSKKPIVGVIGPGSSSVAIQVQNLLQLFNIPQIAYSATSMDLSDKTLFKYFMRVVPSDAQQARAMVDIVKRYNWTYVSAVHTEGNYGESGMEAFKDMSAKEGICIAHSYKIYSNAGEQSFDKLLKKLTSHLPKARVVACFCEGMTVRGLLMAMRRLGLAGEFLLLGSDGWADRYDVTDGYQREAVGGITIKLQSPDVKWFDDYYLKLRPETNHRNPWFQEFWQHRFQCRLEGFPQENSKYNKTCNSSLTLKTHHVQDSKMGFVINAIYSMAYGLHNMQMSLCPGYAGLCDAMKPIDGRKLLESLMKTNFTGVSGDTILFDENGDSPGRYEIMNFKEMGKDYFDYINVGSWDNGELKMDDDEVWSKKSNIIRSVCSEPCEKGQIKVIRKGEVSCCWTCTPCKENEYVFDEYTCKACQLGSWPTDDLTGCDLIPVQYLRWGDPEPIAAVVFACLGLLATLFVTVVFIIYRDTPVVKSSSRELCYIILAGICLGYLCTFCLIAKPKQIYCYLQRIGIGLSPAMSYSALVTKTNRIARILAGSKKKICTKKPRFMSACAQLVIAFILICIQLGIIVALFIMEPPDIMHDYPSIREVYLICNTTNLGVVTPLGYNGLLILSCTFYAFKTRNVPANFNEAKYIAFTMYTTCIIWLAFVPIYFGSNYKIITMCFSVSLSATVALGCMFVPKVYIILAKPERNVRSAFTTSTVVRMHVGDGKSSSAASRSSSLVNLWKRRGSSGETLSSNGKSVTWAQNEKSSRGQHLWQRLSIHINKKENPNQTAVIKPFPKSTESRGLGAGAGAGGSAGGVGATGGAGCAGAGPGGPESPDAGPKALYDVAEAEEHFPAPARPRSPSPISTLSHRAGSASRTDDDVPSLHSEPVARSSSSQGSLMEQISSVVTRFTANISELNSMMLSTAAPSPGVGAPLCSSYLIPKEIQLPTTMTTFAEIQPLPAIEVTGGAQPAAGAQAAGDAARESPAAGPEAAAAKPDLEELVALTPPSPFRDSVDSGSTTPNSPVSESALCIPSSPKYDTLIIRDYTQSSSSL
PROTOCOL_TEXT: MPEP binding assay ([3H]MPEP displacement)
ASSAY_CONDITIONS: [3H]MPEP 2 nM, 1 h at 4° C., EBNA cell membranes
Quick rule for you: Ki under 30 nM gets 1, anything else gets -1.

input: Record CN(C(=O)c1ccc(C#Cc2cccc(F)c2)cn1)C(C)(C)C [Reference compound 1, reference compound] : is its Ki strictly below 30 nM?
output: 1

input: Consider CC(C)(NC(=O)c1ccc(C#Cc2ccnc(Cl)c2)cn1)C(F)(F)F [Reference compound 3, reference compound] . Does its Ki lie strictly below 30 nM?
output: -1

Continuing:
input: Below 30 nM on Ki? Entry `CN(C(=O)c1ccc(C#Cc2cccc(Cl)c2)cn1)C(C)(C)C`
output: 1

input: Field: below-cutoff. Rule: recorded Ki strictly less than 30 nM. Subject: CN(C(=O)c1ccc(C#Cc2cncc(Cl)c2)cn1)C(C)(C)C [Reference compound 2, reference compound]
output: -1

input: Is Ki of `CN(C(=O)c1ccc(C#Cc2ccnc(Cl)c2)cn1)C(C)(C)C` strictly below 30 nM?
output: 1

====

TGT: human mGlu5a receptor (Homo sapiens (Human))
PROTOCOL_TEXT: Intracellular Ca2+ mobilization assay (mGlu5 PAM assay)
Type: cell-based
ASSAY_CONDITIONS: PAM = positive allosteric modulator, NAM = negative allosteric modulator
MEASUREMENT_NAME: Activity profile

Use the examples below as a reference point.
input: Data request, read-out Activity profile, for `CN(C(=O)c1ccc(C#Cc2ccnc(Cl)c2)cn1)C(C)(C)C`
output: NAM

input: What does the data say about its Activity profile? Entry: CN(C(=O)c1ccc(C#Cc2cncc(Cl)c2)cn1)C(C)(C)C [Reference compound 2, reference compound]
output: PAM

input: Can you share its Activity profile? I mean this compound: CN(C(=O)c1ccc(C#Cc2cccc(F)c2)cn1)C(C)(C)C [Reference compound 1, reference compound]
output: PAM

input: Need Activity profile of `CN(C(=O)c1ccc(C#Cc2cccc(Cl)c2)cn1)C(C)(C)C` , thanks.
output: NAM

We now examine a further compound.
input: What does the record list as Activity profile for CC(C)(NC(=O)c1ccc(C#Cc2ccnc(Cl)c2)cn1)C(F)(F)F [Reference compound 3, reference compound] ?
output: PAM
